# System: A549
# protocolSummary: Growth inhibition of human A549 cells after 48 hrs by sulforhodamine B assay
# Format: functional, cell-based
# statedConditions: A549, 48 h
parameterMeasured: pIC50
Schema: pIC50 number; meaning minus log10 of the concentration expressed in molar units.

Take a look at these entries with their results.
# querySmiles, pIC50
rows = [
    ("O=C(NN[C@@H]1O[C@H](CO)[C@@H](O)[C@H](O)[C@H]1O)c1cc(-c2ccc(Cl)cc2)nn1Cc1ccc(Cl)nc1", 4.46),
    ("CC(C)(C)c1ccc(Cn2nc(-c3ccc(Cl)cc3)cc2C(=O)NN[C@@H]2OC[C@@H](O)[C@H](O)[C@H]2O)cc1", 4.86),
    ("CC(C)(C)c1ccc(Cn2nc(-c3ccc(Cl)cc3)cc2C(=O)NN[C@@H]2O[C@H](CO)[C@@H](O)[C@H](O)[C@H]2O)cc1", 4.57),
]

Proceed to the following item.
Please tell me: pIC50 of `COc1ccc(-c2cc(C(=O)NN[C@@H]3OC[C@@H](O)[C@H](O)[C@H]3O)n(Cc3ccc(C(C)(C)C)cc3)n2)cc1` , system A549?
4.60
